Listing: growth inhibition of selected compounds
# ASSAY NAME: NCI Yeast Anticancer Drug Screen. Data for the sgs1 mgt1 strain (AID 161);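 note: 0% = growth of cultures given vehicle only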
# CONDITION NOTES: S. cerevisiae sgs1 mgt1 strain, stronger effect = higher value; at 50.0 µM unless noted
This is part of a sample that, as a whole, favours compounds with a hit. Of some 79,000 tested, about 15% had one in any assay.
Give a bare numeral; the unit % is implied.

CC(=O)Nc1ccc(NC(=O)NCCCCCCNC(=O)Nc2ccc(NC(C)=O)cc2)cc1    -21.6
CCN(CC)CC(=O)Nc1ccc2c(c1)C(=O)c1ccc(NC(=O)CN(CC)CC)cc1C2=O    -4.5
Cc1nc2c(c(=O)[nH]1)C(c1ccccc1)C(C)(C)O2 (centres undefined)    -3.6
CCC(/C=C/c1ccc(C)cc1)=N\NC(=O)c1ccccc1    -1.1
COC1OC(CI)C(O)C(O)C1O (centres undefined)    -4.45

Indicate the recorded growth inhibition value for this compound: CCN1C(=O)C(=O)C(c2ccccc2)(c2ccccc2)C1=O
-4.65

Indicate the recorded growth inhibition value for this compound: CN(C)c1ccc(/C=C2\C[N+](C)(C)C/C(=C\c3ccc(N(C)C)cc3)C2=O)cc1
9.35

Indicate the recorded growth inhibition value for this compound: Cc1sc2nc3n(c(=O)c2c1C)N=CN(c1ccc(Cl)cc1)C3
7.8

Indicate the recorded growth inhibition value for this compound: CC(C)(C)C(=O)OCC1CCC(n2cnc3c(=O)[nH]c(N)nc32)O1 (centres undefined)
-3.65

Indicate the recorded growth inhibition value for this compound: CC(=O)CC(=O)ON(C)C(=O)Cc1ccccc1
-2.75

Indicate the recorded growth inhibition value for this compound: CCSc1[nH]c(Nc2nc(-c3ccccc3)n(-c3ccccc3)n2)c(C(N)=O)c1C(N)=O
7.8

Indicate the recorded growth inhibition value for this compound: Cc1ccc2nc(=O)c3cccnc3n2c1
29.9

Indicate the recorded growth inhibition value for this compound: O=C1C(c2ccccc2)=C(c2ccccc2)C1(Cl)Cl
44.3

Indicate the recorded growth inhibition value for this compound: CCCCCCCCCCCCCCCCC(C#N)C(=O)O (centres undefined)
-18.2

Indicate the recorded growth inhibition value for this compound: Cc1ccc(S(=O)(=O)N2CCC(CCl)N(S(=O)(=O)c3ccc(C)cc3)CC2CCl)cc1 (centres undefined)
0.95

Indicate the recorded growth inhibition value for this compound: CC(O)C(=O)OCCOc1ccc(Cl)cc1Cl (centres undefined)
27.3

Indicate the recorded growth inhibition value for this compound: NCCCCCN
-15.9

Indicate the recorded growth inhibition value for this compound: CN(C)c1c2ccccc2c(NC=O)c2ccccc12
11.7

Indicate the recorded growth inhibition value for this compound: CC(=O)OCCc1cc2ccccc2oc1=O
-16.8

Indicate the recorded growth inhibition value for this compound: CCN(CC)C(=S)SCC(=O)Nc1nc2c(s1)CCCC2
-34.2

Indicate the recorded growth inhibition value for this compound: CCOC(=O)c1c(C)[nH]c(C(=O)CCN(C)C)c1C
17.4

Indicate the recorded growth inhibition value for this compound: CCCCCC(=O)CC(=O)C(CC)CC
-1.55

Indicate the recorded growth inhibition value for this compound: COC(=O)C(NC(=O)c1ccccc1)C(c1ccc(Cl)cc1)P(=O)(OC)OC (centres undefined)
12

Indicate the recorded growth inhibition value for this compound: CCOC(=O)c1c(C(=O)OCC)c2cccn2c2c1cnn2-c1ccccc1
5.1

Indicate the recorded growth inhibition value for this compound: COc1ccc(CC(C)NN)cc1 (centres undefined)
50.2

Indicate the recorded growth inhibition value for this compound: O=C(O)c1nc(-c2ccccc2)ncc1-c1nnnn1-c1ccccc1
-21.9

Indicate the recorded growth inhibition value for this compound: CCOC(=O)O/C(C)=C\c1ccc(Cl)cc1
-12.4

Indicate the recorded growth inhibition value for this compound: C=CCOC(=O)c1ccccc1
2.55

Indicate the recorded growth inhibition value for this compound: OCC12OCC(C=CC1O)O2 (centres undefined)
-4.65

Indicate the recorded growth inhibition value for this compound: CCOc1ccccc1Nc1ccc(N)cc1S(=O)(=O)O
-31.5
